- Experiment Notes: self-splicing fitness, log relative to wild type (ln ratio); higher = more splicing; Tetrahymena group I intron in knt gene, E. coli kanamycin selection, DiMSum; sequences stand for … in CUCUCU…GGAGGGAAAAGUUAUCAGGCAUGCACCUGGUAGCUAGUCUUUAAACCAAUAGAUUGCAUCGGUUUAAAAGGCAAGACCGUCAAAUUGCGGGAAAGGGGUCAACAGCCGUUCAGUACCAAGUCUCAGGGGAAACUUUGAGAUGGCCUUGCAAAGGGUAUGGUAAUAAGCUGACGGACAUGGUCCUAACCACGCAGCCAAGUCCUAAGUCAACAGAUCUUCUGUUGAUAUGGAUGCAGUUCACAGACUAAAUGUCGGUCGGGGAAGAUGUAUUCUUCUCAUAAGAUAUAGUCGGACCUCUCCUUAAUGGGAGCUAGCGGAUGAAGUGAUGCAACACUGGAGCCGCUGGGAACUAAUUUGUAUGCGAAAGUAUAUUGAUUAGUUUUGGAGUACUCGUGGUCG;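 also: selection with 25 µg/mL kanamycin versus none on LB agar overnight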
- Condition Info: 30 °C
# self-splicing fitness (ln) per record follows
Recorded Endpoint: self-splicing fitness (ln)

# Sequence Text, Recorded Endpoint, Readout Value
measured = [
    ("AAUGAGCAAUAUUACGAGCG", "self-splicing fitness (ln)", -3.49),
    ("CCCAAGCAAUAUUACGAAUG", "self-splicing fitness (ln)", -3.88),
    ("AAUGAGCAAUAUUACGCAUA", "self-splicing fitness (ln)", -2.52),
    ("GGCUAGCAAUAUUACGUGUA", "self-splicing fitness (ln)", -0.9),
    ("UACAAGCAAUAUUACGAAGG", "self-splicing fitness (ln)", -2.52),
    ("CGGCAGCAAUAUUACGACAG", "self-splicing fitness (ln)", 0.187),
    ("CUCGAGCAAUAUUACGCCAA", "self-splicing fitness (ln)", -3.29),
    ("UCCAAGCAAUAUUACGCUGU", "self-splicing fitness (ln)", -2.3),
    ("ACACAGCAAUAUUACGCCUA", "self-splicing fitness (ln)", -0.959),
    ("UACAAGCAAUAUUACGCACU", "self-splicing fitness (ln)", -0.66),
    ("GCAUAGCAAUAUUACGCGUU", "self-splicing fitness (ln)", -2.03),
    ("UGAAAGCAAUAUUACGCGUG", "self-splicing fitness (ln)", -0.951),
    ("ACUGAGCAAUAUUACGUUUU", "self-splicing fitness (ln)", -4.25),
    ("UAACAGCAAUAUUACGGGAG", "self-splicing fitness (ln)", -2.3),
    ("GGGCAGCAAUAUUACGCUUA", "self-splicing fitness (ln)", 0.359),
    ("CUCUAGCAAUAUUACGAUAU", "self-splicing fitness (ln)", -3.45),
    ("CGAUAGCAAUAUUACGGUUC", "self-splicing fitness (ln)", -3.63),
    ("GUAAAGCAAUAUUACGGACA", "self-splicing fitness (ln)", -0.403),
    ("ACCGAGCAAUAUUACGUGUC", "self-splicing fitness (ln)", -3.24),
    ("AAUAAGCAAUAUUACGUCGA", "self-splicing fitness (ln)", -1.38),
    ("AUGUAGCAAUAUUACGGCGU", "self-splicing fitness (ln)", -1.14),
    ("GCCCAGCAAUAUUACGCAAA", "self-splicing fitness (ln)", -2.41),
    ("UGUAAGCAAUAUUACGGACA", "self-splicing fitness (ln)", -0.174),
    ("GCGCAGCAAUAUUACGUAGG", "self-splicing fitness (ln)", -0.838),
    ("CAGCAGCAAUAUUACGCUGC", "self-splicing fitness (ln)", -3.06),
    ("CACCAGCAAUAUUACGAGAG", "self-splicing fitness (ln)", -0.95),
    ("UUCGAGCAAUAUUACGCCUG", "self-splicing fitness (ln)", -3.17),
    ("GGAGAGCAAUAUUACGACGA", "self-splicing fitness (ln)", -2.34),
    ("AAUCAGCAAUAUUACGGCGG", "self-splicing fitness (ln)", -1.05),
    ("AGUAAGCAAUAUUACGUGUC", "self-splicing fitness (ln)", -3.49),
    ("CCCCAGCAAUAUUACGUCUU", "self-splicing fitness (ln)", -3.9),
]
